study system: CFTR-mediated chloride transport (Homo sapiens, UniProt P13569)
Sequence (P13569 whole entry, looked up): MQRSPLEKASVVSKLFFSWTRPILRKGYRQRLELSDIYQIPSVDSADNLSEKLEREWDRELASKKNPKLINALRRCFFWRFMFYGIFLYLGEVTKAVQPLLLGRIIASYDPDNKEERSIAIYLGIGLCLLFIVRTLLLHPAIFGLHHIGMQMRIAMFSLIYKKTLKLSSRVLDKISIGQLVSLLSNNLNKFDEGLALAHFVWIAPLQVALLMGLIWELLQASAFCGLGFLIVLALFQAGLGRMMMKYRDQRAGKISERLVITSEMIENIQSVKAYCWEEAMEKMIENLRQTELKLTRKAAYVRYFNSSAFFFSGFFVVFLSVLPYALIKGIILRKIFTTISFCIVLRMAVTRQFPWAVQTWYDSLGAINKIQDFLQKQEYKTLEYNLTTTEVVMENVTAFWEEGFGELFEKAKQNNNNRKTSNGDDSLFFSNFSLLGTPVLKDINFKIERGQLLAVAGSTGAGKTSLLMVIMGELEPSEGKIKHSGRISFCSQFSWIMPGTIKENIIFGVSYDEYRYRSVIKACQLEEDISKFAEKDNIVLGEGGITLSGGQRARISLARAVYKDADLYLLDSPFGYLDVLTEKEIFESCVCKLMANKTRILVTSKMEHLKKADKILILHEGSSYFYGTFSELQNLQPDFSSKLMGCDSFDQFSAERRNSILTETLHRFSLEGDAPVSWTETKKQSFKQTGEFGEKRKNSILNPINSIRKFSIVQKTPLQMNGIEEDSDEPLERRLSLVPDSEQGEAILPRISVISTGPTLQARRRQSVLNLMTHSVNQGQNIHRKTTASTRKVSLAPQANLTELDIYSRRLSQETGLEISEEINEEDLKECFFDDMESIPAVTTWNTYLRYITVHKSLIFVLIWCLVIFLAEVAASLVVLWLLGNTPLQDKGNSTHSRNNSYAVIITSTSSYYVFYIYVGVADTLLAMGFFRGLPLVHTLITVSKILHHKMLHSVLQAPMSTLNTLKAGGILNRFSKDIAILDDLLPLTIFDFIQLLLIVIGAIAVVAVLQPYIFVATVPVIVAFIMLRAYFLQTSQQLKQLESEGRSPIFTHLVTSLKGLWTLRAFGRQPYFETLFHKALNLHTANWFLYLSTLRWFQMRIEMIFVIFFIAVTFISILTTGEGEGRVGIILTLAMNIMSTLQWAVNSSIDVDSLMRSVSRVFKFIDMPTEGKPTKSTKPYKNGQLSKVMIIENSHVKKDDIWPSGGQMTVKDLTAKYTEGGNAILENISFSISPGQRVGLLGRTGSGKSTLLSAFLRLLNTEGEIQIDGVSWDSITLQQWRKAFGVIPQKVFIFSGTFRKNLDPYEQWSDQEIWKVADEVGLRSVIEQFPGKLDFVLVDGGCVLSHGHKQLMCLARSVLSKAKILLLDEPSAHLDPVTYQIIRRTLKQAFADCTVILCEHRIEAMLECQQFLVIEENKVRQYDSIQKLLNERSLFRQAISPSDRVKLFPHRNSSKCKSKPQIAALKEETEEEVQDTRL
test parameters: enteroid cells incubated with test compound 18-24 hours; acute 10 μM forskolin and 300 nM Compound III
assay endpoint: EC50

1. CC1(C)C[C@H]2CCCn3ccc(n3)S(=O)(=O)NC(=O)c3ccc(-n4ccc(OCCCC5(C(F)(F)F)CC5)n4)nc3N1C2 (single isomer, unassigned) [Compound 166]
< 1000 nM
2. CC1(C)CC2CCCNc3ccnc(c3)S(=O)(=O)NC(=O)c3ccc(-n4ccc(OCCC5(C(F)(F)F)CC5)n4)nc3N1C2 (centres unmarked) [Compound 23]
> 3000 nM
3. CC1(C)C[C@H]2CNc3cccc(n3)S(=O)(=O)NC(=O)c3ccc(-n4ccc(OCCC5(C(F)(F)F)CC5)n4)nc3N1C2 (single isomer, unassigned) [Compound 24]
> 3000 nM
4. [2H]C([2H])([2H])C1(C([2H])([2H])[2H])C[C@@H]2CCCNc3cccc(n3)S(=O)(=O)NC(=O)c3ccc(-n4ccc(OCCCC5(C(F)(F)F)CC5)n4)nc3N1C2 [Compound 292]
< 1000 nM

CC(C)COc1cc(F)cc(-c2ccc3c(n2)N2C[C@@H](CCCNc4cccc(n4)S(=O)(=O)NC3=O)CC2(C)C)c1 [Compound 224] has a reported EC50 of < 1000 nM

CC1(C)CC2CCCCOc3ccc(cn3)S(=O)(=O)NC(=O)c3ccc(-n4ccc(OCCC5(C(F)(F)F)CC5)n4)nc3N1C2 (centres unmarked) [Compound 94] has a reported EC50 of > 3000 nM

CC1(C)CC2CCCCNc3cccc(n3)S(=O)(=O)NC(=O)c3ccc(-n4ccc(OCCC5(C(F)(F)F)CC5)n4)nc3N1C2 (racemic) [Compound 28] has a reported EC50 of < 1000 nM

CC1(C)C[C@@H]2CCCNc3cccc(n3)S(=O)(=O)NC(=O)c3ccc(N4CC[C@H](CCC5C6(CC6)C56CC6)C4=O)nc3N1C2 (single isomer, unassigned) [Compound 178] has a reported EC50 of < 1000 nM

CC(C)(C)CCC1C(=O)N(c2ccc3c(n2)N2C[C@@H](CCCNc4cccc(n4)S(=O)(=O)NC3=O)CC2(C)C)CC1(C)C (some centres unmarked) [Compound 98] has a reported EC50 of < 1000 nM

CC1(C)CC2CCCCNc3cccc(n3)S(=O)(=O)NC(=O)c3ccc(-n4cc(OCCC5(C(F)(F)F)CC5)cn4)nc3N1C2 (racemic) [Compound 70] has a reported EC50 of < 1000 nM

CC1(C)C[C@H]2CCCOc3ccc(cc3)S(=O)(=O)NC(=O)c3ccc(-n4ccc(OCCC5(C(F)(F)F)CC5)n4)nc3N1C2 (single isomer, unassigned) [Compound 100] has a reported EC50 of > 3000 nM

====

study system: CFTR-mediated chloride transport (Homo sapiens)
Format: cell-based
test parameters: enteroid cells incubated with test compound 18-24 hours; acute 10 μM forskolin and 300 nM Compound III
EC50: recorded values

Please review the following examples before continuing.
1. Cc1cc2nn1CCC[C@H]1CN(c3nc(-n4ccc(OCCC5(C(F)(F)F)CC5)n4)ccc3C(=O)NS2(=O)=O)C(C)(C)C1 (single isomer, unassigned) [Compound 151]
< 1000 nM
2. Cc1cc2nn1CCC[C@H]1CN(c3nc(-n4ccc(OCCC5(C(F)(F)F)CC5)n4)ccc3C(=O)NS2(=O)=O)C(C)(C)C1 (single isomer, unassigned) [Compound 150]
1000 to 3000 nM
3. Cc1cn2nc1S(=O)(=O)NC(=O)c1ccc(-n3ccc(OCCC4(C(F)(F)F)CC4)n3)nc1N1CC(CCC2)CC1(C)C (stereo not drawn)
< 1000 nM
4. CC1(C)C[C@@H]2CCCNc3cccc(n3)S(=O)(=O)NC(=O)c3ccc(N4CCC(OCCC(C)(C)C(F)(F)F)C4=O)nc3N1C2 (stereo partly drawn)
< 1000 nM
5. CC1(C)C[C@H]2CCCNc3cccc(n3)S(=N)(=O)NC(=O)c3ccc(-n4ccc(OCCC5(C(F)(F)F)CC5)n4)nc3N1C2 (single isomer, unassigned) [Compound 267]
< 1000 nM

# context switch: different compound, same EC50
CC1(C)C[C@@H]2CCCNc3cccc(n3)S(=O)(=O)NC(=O)c3ccc(-n4ccc(OC[C@@H](O)C5C6(CC6)C56CC6)n4)nc3N1C2 (single isomer, unassigned) [Compound 293] has a reported EC50 of < 1000 nM

====

study system: CFTR-mediated chloride transport (Homo sapiens, UniProt P13569)
Assay type: cell-based
test parameters: enteroid cells incubated with test compound 18-24 hours; acute 10 μM forskolin and 300 nM Compound III; % of chloride transport with 3 μM Compound A, 3 μM Compound II and 300 nM acute Compound III triple combination control
assay endpoint: Max. Activity

Please review the following examples before continuing.
1) CC1(C)C[C@@H]2CCCNc3cccc(n3)S(=O)(=O)NC(=O)c3ccc(-n4ccc(OCC(C)(C)C(F)(F)F)n4)nc3N1C2
+++ (+++ is >60%)
2) CC1(C)C[C@H]2CCCCn3ccc(n3)S(=O)(=O)NC(=O)c3ccc(-n4ccc(OCCC5(C(F)(F)F)CC5)n4)nc3N1C2 (single isomer, unassigned) [Compound 44]
++ (++ is 30-60%)
3) CC(C)(C)CCO[C@H]1CCN(c2ccc3c(n2)N2C[C@@H](CCCNc4cccc(n4)S(=O)(=O)NC3=O)CC2(C)C)C1=O (single isomer, unassigned) [Compound 171]
+++ (+++ is >60%)
4) Cc1c2cnn1CCC[C@@H]1CN(c3nc(-n4ccc(OCCC5(C(F)(F)F)CC5)n4)ccc3C(=O)NS2(=O)=O)C(C)(C)C1 (single isomer, unassigned) [Compound 113]
++ (++ is 30-60%)

# context switch: different molecule, same Max. Activity
CC1(C)C[C@H]2C[C@@H](F)CNc3cccc(n3)S(=O)(=O)NC(=O)c3ccc(-n4ccc(OCCC5C6(CC6)C56CC6)n4)nc3N1C2 (single isomer, unassigned) [Compound 309] has a reported Max. Activity of +++ (+++ is >60%)

====

study system: CFTR-mediated chloride transport (Homo sapiens, UniProt P13569)
test parameters: enteroid cells incubated with test compound 18-24 hours; acute 10 μM forskolin and 300 nM Compound III
pEC50: −log10 of the molar value.
pEC50: recorded values

Please review the following examples before continuing.
1) CC1(C)C[C@H]2CCCCNc3cccc(n3)S(=O)(=O)NC(=O)c3ccc(-n4ccc(OCCC5(C(F)(F)F)CC5)n4)nc3N1C2 (single isomer, unassigned) [Compound 30]
> 6.00
2) CC1(C)CC[C@H]2CCCNc3cccc(n3)S(=O)(=O)NC(=O)c3ccc(-n4ccc(OCCC5(C(F)(F)F)CC5)n4)nc3N21
> 6.00
3) CC1(C)C[C@@H]2CN1c1nc(-n3ccc(OCCC4(C(F)(F)F)CC4)n3)ccc1C(=O)NS(=O)(=O)c1ccn(n1)CCO2 (single isomer, unassigned) [Compound 302]
< 5.52

Cc1cn2nc1S(=O)(=O)NC(=O)c1ccc(-n3ccc(OCCC(C4CC4)C4CC4)n3)nc1N1C[C@H](CCC2)CC1(C)C (single isomer, unassigned) [Compound 201] has a reported pEC50 of < 5.52

Cc1c2cnn1CCCC1CN(c3nc(-n4ccc(OCC(C)(C)C(F)(F)F)n4)ccc3C(=O)NS2(=O)=O)C(C)(C)C1 (single isomer, unassigned) [Compound 285] has a reported pEC50 of > 6.00

CC1(C)CC2CCCOc3ccc(cc3)S(=O)(=O)NC(=O)c3ccc(-n4ccc(OCCC5(C(F)(F)F)CC5)n4)nc3N1C2 (racemic) has a reported pEC50 of > 6.00

CC1(C)CCC2CCNc3cccc(n3)S(=O)(=O)NC(=O)c3ccc(-n4ccc(OCCC5(C(F)(F)F)CC5)n4)nc3N21 (racemic) has a reported pEC50 of > 6.00

CC1(C)C[C@H]2CCCNc3cccc(n3)S(=O)(=O)NC(=O)c3ccc(-n4ccc(OCCC(C5CC5)C5CC5)n4)nc3N1C2 has a reported pEC50 of > 6.00

====

study system: CFTR-mediated chloride transport (Homo sapiens)
Assay type: cell-based
test parameters: enteroid cells incubated with test compound 18-24 hours; acute 10 μM forskolin and 300 nM Compound III; % of chloride transport with 3 μM Compound A, 3 μM Compound II and 300 nM acute Compound III triple combination control
Method: Base medium (ADF+++) consisted of Advanced DMEM/Ham's F12, 2 mM Glutamax, 10 mM HEPES, […] penicillin/streptomycin. […] Enteroid cells were incubated with test compound in IEMM for 18-24 hours at 37° C., 95% humidity and 5% CO2. […] Chloride transport was initiated by addition of Chloride Free Dye Stimulation Solution and the fluorescence signal was read for 15 min. […]
assay endpoint: Max. Activity

Please review the following examples before continuing.
1. CC1(C)C[C@H]2CCCCc3cccc(n3)S(=O)(=O)NC(=O)c3ccc(-n4ccc(OCCC5(C(F)(F)F)CC5)n4)nc3N1C2 (single isomer, unassigned) [Compound 87]
+++ (+++ is >60%)
2. CC1(C)C[C@@H]2CCCNc3cccc(n3)S(=O)(=O)NC(=O)c3ccc(N4CCN(C[C@H]5CC[C@@H](C(F)(F)F)CC5)C4=O)nc3N1C2 (single isomer, unassigned) [Compound 239]
+ (+ is <30%)
3. CC1(C)C[C@H]2CCCn3ccc(n3)S(=O)(=O)NC(=O)c3ccc(N4CC[C@H](CCCC5(C(F)(F)F)CC5)C4=O)nc3N1C2 (single isomer, unassigned) [Compound 182]
++ (++ is 30-60%)
4. CC1(C)C[C@H]2CCCCNc3ccc(cn3)S(=O)(=O)NC(=O)c3ccc(-n4ccc(OCC5C6(CC6)C56CC6)n4)nc3N1C2 (single isomer, unassigned) [Compound 121]
+++ (+++ is >60%)
5. CC1(C)CC2CCCCc3cccc(c3)S(=O)(=O)NC(=O)c3ccc(-n4ccc(OCCC5(C(F)(F)F)CC5)n4)nc3N1C2 (stereo not shown) [Compound 53]
+++ (+++ is >60%)

Entry CC1(C)C[C@H]2CCn3ccc(n3)S(=O)(=O)NC(=O)c3ccc(-n4ccc(OCCCC5(C(F)(F)F)CC5)n4)nc3N1C2 (single isomer, unassigned) [Compound 279] under CFTR-mediated chloride transport (Homo sapiens) had Max. Activity of ++ (++ is 30-60%)

Entry CC1(C)C[C@H]2CCCCn3ccc(n3)S(=O)(=O)NC(=O)c3ccc(-n4ccc(OCCCC5(C(F)(F)F)CC5)n4)nc3N1C2 (single isomer, unassigned) [Compound 277] under CFTR-mediated chloride transport (Homo sapiens) had Max. Activity of + (+ is <30%)

Entry CC1(C)CC2CCCNc3ccc(cn3)S(=O)(=O)NC(=O)c3ccc(-n4ccc(OCCC5(C(F)(F)F)CC5)n4)nc3N1C2 (racemic) [Compound 62] under CFTR-mediated chloride transport (Homo sapiens) had Max. Activity of +++ (+++ is >60%)

Entry CC1(C)CC2CCCNc3cccc(n3)S(=O)(=O)NC(=O)c3ccc(-n4ccc(OCC5C(C)(C)C5(C)C)n4)nc3N1C2 (stereo not shown) [Compound 42] under CFTR-mediated chloride transport (Homo sapiens) had Max. Activity of +++ (+++ is >60%)
